# assay.method.text: chemical genetic growth profiling, strain panel (AID 1159580);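 further: tested at 20 µM; growth read once vehicle control cultures reached saturation at 30 °C; 1 = growth at the plate median or of vehicle wells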
# measurement.context: S. cerevisiae deletion strains, growth OD, locus YDR001C, strain nth1
Hit rate of the full screen: of about 5,500 compounds, about 2,000 (36%) were called active. Another 18% or so got no clear call; they are omitted. No stated cut-off is given here; in the data, active means normalized growth mostly below about 0.91 (no sharp cut-off); inconclusive means no clear call, values can overlap the other calls; inactive means mostly above about 0.92. This is one part of the list.
I would appreciate it if you answered using one of these outcomes: y = active, n = inactive

Answered examples (10):
{"compound": "COC1=CC23CCCN2CCc2cc4c(cc2C3C1O)OCO4 (stereo not given)", "assigned.label": "n"}
{"compound": "O=C(/C=C/c1ccccc1)c1ccc(O)cc1O", "assigned.label": "y"}
{"compound": "COc1ccccc1OCC(O)COC(N)=O (stereo not given)", "assigned.label": "n"}
{"compound": "CC(C)CCCC(C)N (stereo not given)", "assigned.label": "n"}
{"compound": "O=C1C=C(O)c2ccccc2C1=O", "assigned.label": "n"}
{"compound": "CN1CCN(C2=Nc3cc(Cl)ccc3Nc3ccccc32)CC1", "assigned.label": "n"}
{"compound": "CC(=O)OCC1=C(C(=O)O)N2C(=O)[C@@H](NC(=O)CSc3ccncc3)[C@H]2SC1", "assigned.label": "n"}
{"compound": "CCCCCC/C=C\\CCCCCCCc1cccc(O)c1C(=O)O", "assigned.label": "n"}
{"compound": "CC(=O)OC1CCC23CC1(C)CCC2C(C)(C)CC3OC(C)=O (stereo not given)", "assigned.label": "n"}
{"compound": "COc1cc2c(cc1OC)C(C)NCC2 (stereo not given)", "assigned.label": "n"}

Hi, do you know how CC(C)C1CCC(C(=O)N[C@@H](Cc2ccccc2)C(=O)O)CC1 (stereo not given in full) came out in this test?
n

What about CNC(C)[C@@H]1CC[C@@H](N)[C@@H](OC2[C@@H](N)C[C@@H](N)[C@H](OC3OC[C@](C)(O)[C@H](NC)[C@H]3O)[C@H]2O)O1 (stereo not given in full) ?
n

Lookup "COc1cc(O)c2c(c1)C(=O)c1cc(C)cc(O)c1C2=O"
n

Please give the result for "COc1ccc(-c2c(O)c3c(OC)c4c(cc3oc2=O)OC(C)(C)C=C4)cc1" too.
n

Similarly, "CC(C)=CCC/C(C)=C/CO" ?
n

###

# assay.method.text: chemical genetic growth profiling, strain panel (AID 1159580)
# measurement.context: S. cerevisiae deletion strains, growth OD, locus YDL101C, strain DUN1
Out of some 5,500 compounds screened, about 2,000 (36%) were called active. Inconclusive results (about 18%) are left out. No stated cut-off is given here; in the data, active means normalized growth mostly below about 0.91 (no sharp cut-off); inconclusive means no clear call, values can overlap the other calls; inactive means mostly above about 0.92. Some of the results follow.
# valid calls are T (active), F (inactive); nothing else

{"molecule": "O=[N+]([O-])c1cc(C(F)(F)F)ccc1Oc1cc(C(F)(F)F)cc(C(F)(F)F)c1", "assigned.label": "F"}
{"molecule": "CCCC(=O)Nc1ccc(OCC(O)CNC(C)C)c(C(C)=O)c1 (stereo unspecified)", "assigned.label": "F"}
{"molecule": "O=[N+]([O-])c1cc(C(F)(F)F)ccc1Sc1n[nH]c(-c2cc(Cl)cc(Cl)c2)n1", "assigned.label": "F"}
{"molecule": "C[C@H]1C(=O)CCC2[C@]3(C)CC[C@@]4(C)C5CC(C)(C)CC[C@]5(C)CC[C@]4(C)C3CC[C@@]21C (stereo partly specified)", "assigned.label": "F"}
{"molecule": "Cc1nc(C(F)(F)F)nc(Sc2n[nH]c(-c3cc(Cl)cc(Cl)c3)n2)c1C", "assigned.label": "F"}

Please indicate how the test categorized "CCOC(=O)c1cnc(SCC(=O)c2ccc(Cl)cc2Cl)[nH]1" .
F

Another molecule to look at: "CC(C)(C)c1ccc(-c2cc(NC(=O)c3ccc(Cl)cc3)n[nH]2)cc1"
F

And "Cc1oc(C(C)(C)C)cc1-c1cc(NC(=O)c2ccccc2)n[nH]1" ?
F

Then this molecule: "COc1ccc(Oc2ccc([N+](=O)[O-])cc2C(=O)O/N=C(/N)c2ccc(C(F)(F)F)cc2)cc1"
F

###

# assay.method.text: chemical genetic growth profiling, strain panel (AID 1159580)
# measurement.context: S. cerevisiae deletion strains, growth OD, locus YBR136W, strain MEC1
The whole screen tested about 5,500 compounds, of which about 2,000 (36%) were called active. Inconclusive results (about 18%) are left out. No stated cut-off is given here; in the data, active means normalized growth mostly below about 0.91 (no sharp cut-off); inconclusive means no clear call, values can overlap the other calls; inactive means mostly above about 0.92. The list shows a part of the results.
The reply should be one of these categories: yes (1) for active, no (0) for inactive

Use these answered entries as a reference point.
{"compound": "O=C(OCCNc1ccc([N+](=O)[O-])cn1)c1ccc([N+](=O)[O-])o1", "assigned.label": "no (0)"}
{"compound": "CC(C)Sc1c(Cl)cccc1NC(=O)Nc1ccccc1", "assigned.label": "no (0)"}
{"compound": "COC(=O)c1sccc1S(=O)(=O)Nc1cc(C(F)(F)F)cc(C(F)(F)F)c1", "assigned.label": "no (0)"}

So what was the verdict on "Cc1csc2ncnc(N3CCN(C(=O)Nc4ccc(SC(F)(F)F)cc4)CC3)c12" in this test?
no (0)

Can you check "O=C(Nc1ccc(F)cc1)c1cc(Br)ccc1O" next?
no (0)

How about CC1SC(c2cccnc2)N(c2ccc(Cl)cc2)C1=O (stereo not drawn) ?
no (0)

Also "COC(=O)c1cccc(NS(=O)(=O)c2ccc(Cl)c(Cl)c2)c1" ?
no (0)

Please do the same for "COc1cc(C2SCCS2)cc(Br)c1OC(=O)NC(=O)c1c(Cl)cccc1Cl" as well.
no (0)

Queued: "O=[N+]([O-])c1ccc(Sc2ccccc2)cc1O"
no (0)

Entry CC1SC(c2cccnc2)N(c2ccc(F)cc2F)C1=O (stereo not drawn) please
no (0)

Also need "COC(=O)c1cc([N+](=O)[O-])ccc1S(=O)(=O)Cc1ccc(Cl)cc1" , thanks.
no (0)

###

# assay.method.text: chemical genetic growth profiling, strain panel (AID 1159580);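 further: tested at 20 µM; growth read once vehicle control cultures reached saturation at 30 °C; 1 = growth at the plate median or of vehicle wells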
# measurement.context: S. cerevisiae deletion strains, growth OD, locus YLR342W, strain FKS1 (second series), stronger effect = lower value
Screen size: about 5,500 compounds; about 2,000 (36%) were called active. Another 18% or so got no clear call; they are omitted. This is one part of the list.
Sorting guide: entries reporting normalized growth beneath 1 go in the yes (1) pile, the rest go in the no (0) pile.

Previously resolved entries follow.
{"molecule": "CNC(C)(C)Cc1ccccc1", "assigned.label": "no (0)"}
{"molecule": "C=C(C)C1Cc2c(ccc3c(=O)c4c(oc23)COc2cc(OC)c(OC)cc2-4)O1 (configuration not stated)", "assigned.label": "no (0)"}
{"molecule": "CC(=O)Nc1c(I)cc(I)c(C(=O)O)c1I", "assigned.label": "no (0)"}
{"molecule": "COc1cc(OC)c2c(OC)c(-c3ccc4c(c3)OCO4)c(=O)oc2c1", "assigned.label": "yes (1)"}
{"molecule": "O=c1c(O)c(-c2ccccc2)oc2cc(O)ccc12", "assigned.label": "yes (1)"}

normalized growth under 1? Item: "COc1ccc(-c2c(OC)c3c(OC)c4c(cc3oc2=O)OC(C)(C)C=C4)cc1"
no (0)

Subsequent entry: "O=C1C=CC(=O)c2c(O)cccc21"
yes (1)

###

Below, each of the compounds is paired with its reported normalized growth value.
# assay.method.text: chemical genetic growth profiling, strain panel (AID 1159580);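 further: tested at 20 µM; growth read once vehicle control cultures reached saturation at 30 °C; 1 = growth at the plate median or of vehicle wells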
# measurement.context: S. cerevisiae deletion strains, growth OD, locus YPR141C, strain kar3, stronger effect = lower value
The campaign covered roughly 5,500 compounds. About 2,000 (36%) were called active. About 18% were inconclusive and are not listed. The list shows a part of the results.
API note: the answer field is a bare number with no unit suffix.

Example cases with answers are listed next.
{"compound": "O=C1C=C(O)c2ccccc2C1=O", "reported.endpoint": "normalized growth", "reading": 0.948}
{"compound": "CCCN(CCC)c1c([N+](=O)[O-])cc(C(F)(F)F)cc1[N+](=O)[O-]", "reported.endpoint": "normalized growth", "reading": 1}
{"compound": "CC(=O)Nc1c(I)cc(I)c(C(=O)O)c1I", "reported.endpoint": "normalized growth", "reading": 0.981}

Requested field: normalized growth. Item: O=C1C(=O)c2ccccc2C(O)=C1C1CCC(c2ccc(Cl)cc2)CC1 (stereo unspecified)
1

Please do the same for "CCCCN(CC)c1c([N+](=O)[O-])cc(C(F)(F)F)cc1[N+](=O)[O-]" as well.
1.01

Would you kindly repeat that for "CNC(C)(C)Cc1ccccc1" ?
0.998

###

# assay.method.text: chemical genetic growth profiling, strain panel (AID 1159580);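 further: tested at 20 µM; growth read once vehicle control cultures reached saturation at 30 °C; 1 = growth at the plate median or of vehicle wells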
# measurement.context: S. cerevisiae deletion strains, growth OD, locus YIL125W, strain kgd1, stronger effect = lower value
About 2,000 (36%) of roughly 5,500 compounds were called active. About 18% were inconclusive and are not listed. This is one part of the list.
# normalized growth per record follows
Field format: numeric only.

Record excerpt, results attached:
{"compound": "CNC(=O)Oc1cccc2c1OC(C)(C)C2", "normalized growth": 0.987}
{"compound": "O[C@H]1[C@H](O)[C@@H](O)C2OC[C@H]1O2", "normalized growth": 0.988}
{"compound": "NS(=O)(=O)c1cc2c(cc1Cl)NCNS2(=O)=O", "normalized growth": 0.996}
{"compound": "COC(=O)C[C@H]1C(C)(C)[C@@H](OC(C)=O)[C@@H]2CC3=C4CC(=O)O[C@@H](c5ccoc5)[C@]4(C)CCC3[C@@]1(C)C2=O (stereo not given in full)", "normalized growth": 0.993}

API: the following record is the query input.
GET /values?readout=normalized growth&item= CC(=O)Oc1c(C)c(C)c2c(c1C)CCC(C)(CCCC(C)CCCC(C)CCCC(C)C)O2 (stereo not given)
0.991
